Data origin, for the record: ChEMBL document CHEMBL3112527

Experiment: Aqueous solubility of the compound in PBS buffer at pH 7.4 after 24 hrs by HPLC analysis
Type: physicochemical
Settings: pH 7.4, 24 h
# solubility binned as class A = under 0.2 µM, class B = from 0.2 µM up to 0.6 µM, class C = 0.6 µM and over

# smiles record, group label
data = [
    ("Clc1ccc2c(NCCCNc3ccnc(N4CCOCC4)n3)ccnc2c1", "class B"),
    ("Clc1ccc2c(NCCCCCCCCNc3ccnc(Cl)n3)ccnc2c1", "class A"),
    ("Clc1ccc2c(NCCCCCCCNc3nccc(Cl)n3)ccnc2c1", "class A"),
    ("Clc1ccc2c(NCCCNc3nccc(N4CCCC4)n3)ccnc2c1", "class B"),
    ("Clc1ccc2c(NCCCCCCCCCCNc3nccc(Cl)n3)ccnc2c1", "class A"),
    ("Clc1ccc2c(NCCCCCCCCNc3nccc(Cl)n3)ccnc2c1", "class A"),
    ("Clc1ccc2c(NCCNc3ccnc(Cl)n3)ccnc2c1", "class C"),
    ("Clc1ccc2c(NCCCNc3nccc(Cl)n3)ccnc2c1", "class B"),
    ("Clc1ccc2c(NCCCNc3ccnc(N4CCCCC4)n3)ccnc2c1", "class B"),
    ("Clc1ccc2c(NCCCCCCCCCCCCNc3nccc(Cl)n3)ccnc2c1", "class A"),
    ("Clc1ccc2c(NCCCNc3nccc(N4CCCCC4)n3)ccnc2c1", "class B"),
    ("Clc1ccnc(N2CCOCC2)n1", "class C"),
    ("Clc1ccc2c(NCCNc3nccc(Cl)n3)ccnc2c1", "class C"),
    ("Clc1ccc2c(NCCCNc3nccc(N4CCOCC4)n3)ccnc2c1", "class B"),
    ("Clc1ccc2c(NCCCCNc3nccc(Cl)n3)ccnc2c1", "class C"),
]

====

Assay: Cytotoxicity against human HeLa cells assessed as alteration of cell morphology by microscopic analysis
Format: cell-based
Settings: read-out: MIC

# smiles record, measure unit, value modifier, MCC
data = [
    ("Clc1ccc2c(NCCCOc3nccc(Cl)n3)ccnc2c1", "µM", ">", 100),
    ("Clc1ccc2c(NCCCCCCCCCCNc3nccc(Cl)n3)ccnc2c1", "µM", "=", 4),
    ("Clc1ccc2c(NCCCCCCCCNc3nccc(Cl)n3)ccnc2c1", "µM", "=", 20),
    ("Clc1ccc2c(NCCCNc3nccc(N4CCCC4)n3)ccnc2c1", "µM", "=", 100),
    ("Clc1ccc2c(NCCCNc3ccnc(N4CCOCC4)n3)ccnc2c1", "µM", "=", 100),
    ("Clc1ccc2c(NCCCCCCCNc3nccc(Cl)n3)ccnc2c1", "µM", "=", 4),
    ("Clc1ccc2c(NCCCNc3nccc(N4CCNCC4)n3)ccnc2c1", "µM", "=", 100),
    ("Clc1ccc2c(NCCCCCCCCCCCCNc3nccc(Cl)n3)ccnc2c1", "µM", "=", 20),
    ("Clc1ccc2c(NCCCCCCCCNc3ccnc(Cl)n3)ccnc2c1", "µM", "=", 4),
    ("Clc1ccc2c(NCCCNc3ccnc(Cl)n3)ccnc2c1", "µM", ">", 100),
    ("Clc1ccc2c(NCCCNc3nccc(N4CCOCC4)n3)ccnc2c1", "µM", ">", 100),
    ("Clc1ccc2c(NCCCNc3nccc(Cl)n3)ccnc2c1", "µM", ">", 100),
    ("Clc1ccc2c(NCCCNc3ccnc(N4CCCCC4)n3)ccnc2c1", "µM", "=", 20),
    ("Clc1ccnc(N2CCOCC2)n1", "µM", ">", 100),
    ("Clc1ccc2c(NCCCNc3nccc(N4CCCCC4)n3)ccnc2c1", "µM", "=", 100),
    ("Clc1ccc2c(NCCCCNc3nccc(Cl)n3)ccnc2c1", "µM", "=", 100),
    ("Clc1ccc2c(NCCNc3ccnc(Cl)n3)ccnc2c1", "µM", "=", 4),
    ("Clc1ccc2c(NCCNc3nccc(Cl)n3)ccnc2c1", "µM", ">", 100),
]

====

Assay: Cytotoxicity against cat CRFK cells assessed as cell viability by MTS assay
Format: cell-based, Felis catus
reported property: CC50

# smiles record, reported property, result
rows = [
    ("Clc1ccc2c(NCCCNc3nccc(N4CCNCC4)n3)ccnc2c1", "CC50", "74 µM"),
    ("Clc1ccc2c(NCCCCCCCCCCCCNc3nccc(Cl)n3)ccnc2c1", "CC50", "19 µM"),
    ("Clc1ccc2c(NCCCNc3nccc(Cl)n3)ccnc2c1", "CC50", "> 100 µM"),
    ("Clc1ccc2c(NCCCCNc3nccc(Cl)n3)ccnc2c1", "CC50", "> 100 µM"),
    ("Clc1ccc2c(NCCCCCCCCNc3nccc(Cl)n3)ccnc2c1", "CC50", "10 µM"),
    ("Clc1ccc2c(NCCCNc3ccnc(N4CCCCC4)n3)ccnc2c1", "CC50", "55 µM"),
    ("Clc1ccc2c(NCCCCCCCCNc3ccnc(Cl)n3)ccnc2c1", "CC50", "8 µM"),
    ("Clc1ccc2c(NCCCCCCCCCCNc3nccc(Cl)n3)ccnc2c1", "CC50", "4.4 µM"),
    ("Clc1ccc2c(NCCCCCCCNc3nccc(Cl)n3)ccnc2c1", "CC50", "> 100 µM"),
    ("Clc1ccc2c(NCCCNc3ccnc(N4CCOCC4)n3)ccnc2c1", "CC50", "> 100 µM"),
    ("Clc1ccnc(N2CCOCC2)n1", "CC50", "> 100 µM"),
    ("Clc1ccc2c(NCCCNc3ccnc(Cl)n3)ccnc2c1", "CC50", "> 100 µM"),
    ("Clc1ccc2c(NCCCNc3nccc(N4CCCCC4)n3)ccnc2c1", "CC50", "9.8 µM"),
    ("Clc1ccc2c(NCCNc3nccc(Cl)n3)ccnc2c1", "CC50", "> 100 µM"),
    ("Clc1ccc2c(NCCCNc3nccc(N4CCCC4)n3)ccnc2c1", "CC50", "49 µM"),
    ("Clc1ccc2c(NCCCNc3nccc(N4CCOCC4)n3)ccnc2c1", "CC50", "> 100 µM"),
    ("Clc1ccc2c(NCCNc3ccnc(Cl)n3)ccnc2c1", "CC50", "> 100 µM"),
    ("Clc1ccc2c(NCCCOc3nccc(Cl)n3)ccnc2c1", "CC50", "> 100 µM"),
]

====

The reader will find reported logD at 24 h values listed item by item below.
Assay: n-octanol-PBS buffer distribution coefficient, log D of the compound at pH 7.4 after 24 hrs by HPLC analysis
Format: physicochemical

# smiles record, logD at 24 h
rows = [
    ("Clc1ccc2c(NCCCNc3nccc(N4CCCCC4)n3)ccnc2c1", 0.845),
    ("Clc1ccc2c(NCCCCCCCCNc3ccnc(Cl)n3)ccnc2c1", 1.48),
    ("Clc1ccc2c(NCCCOc3nccc(Cl)n3)ccnc2c1", 1.04),
    ("Clc1ccnc(N2CCOCC2)n1", 0.13),
]

====

The reader will find reported solubility values listed item by item below.
Experiment: Aqueous solubility of the compound in PBS buffer at pH 7.4 after 24 hrs by HPLC analysis
Assay type: physicochemical
Conditions: pH 7.4, 24 h
reported property: solubility (µM)

# smiles record, quantitative result
rows = [
    ("Clc1ccc2c(NCCCNc3nccc(N4CCNCC4)n3)ccnc2c1", 0.6),
    ("Clc1ccc2c(NCCCOc3nccc(Cl)n3)ccnc2c1", 0.2),
    ("Clc1ccc2c(NCCCNc3ccnc(Cl)n3)ccnc2c1", 0.6),
]
